assay.notes: Biodistribution: organ distribution of F-18 signal in mice
Format: in vivo, male NMRI mice
assay.setup: skin, 60 min post i.v. injection
observation.type: Organ distribution of F-18 signal, skin (% ID/g)
Give bare numbers, in % ID/g.

# compound, display.unit, Organ distribution of F-18 signal, skin
rows = [
    ("O=C(NCC(=O)N1CCN(c2ccc(OCc3ccccc3)cn2)CC1)c1ccnc([18F])c1 [Example 14f]", "% ID/g", 0.43),
    ("O=C(NCC(=O)N1CCN(c2ccc(OCc3ccccc3)cc2)CC1)c1ccc([18F])nc1 [Example 10e]", "% ID/g", 0.51),
    ("O=C(NCC(=O)N1CCN(c2ccc(OCc3ccccc3)cc2)CC1)c1cccnc1[18F] [Example 12c]", "% ID/g", 0.66),
    ("O=C(NCC(=O)N1CCN(c2ccc(OCc3ccccc3)cc2)CC1)c1cccc(OCC[18F])c1 [Example 3g]", "% ID/g", 1.29),
]

In the following, a different compound is considered.
O=C(NCC(=O)N1CCN(c2ccc(OCc3ccccc3)cc2)CC1)c1ccnc([18F])c1 [Example 11c] yielded Organ distribution of F-18 signal, skin of 0.66
